assay-method-text: refractive index (Na D-line) (dimensionless)
assay-setup: 293.15 K; 101.33 kPa; Liquid; Standard Abbe refractometry
Reported refractive index values are given for each entry in this list.
test-readout: refractive index

| molecular-string | test-readout | experimental-value |
| --- | --- | --- |
| CC(C)OC(C)C | refractive index | 1.36547 |
| CCO | refractive index | 1.35929 |
| C1CCCCC1 | refractive index | 1.42655 |
| CCCCO | refractive index | 1.39705 |
| CO | refractive index | 1.32643 |

---

assay-setup: 298.15 K; 101.33 kPa; Liquid; Vibrating tube method
Reported mass density values are given for each entry in this list.
test-readout: mass density (kg/m3)

| molecular-string | experimental-value |
| --- | --- |
| CO | 786.624 |
| CC(C)OC(C)C | 718.511 |
| CCCCO | 805.851 |
| CCO | 784.89 |
